The values you see were collected from the RNAGym collection of RNA variant scans (doi:10.7554/elife.80360).

B1: Twister Ribozyme (parent)
chain: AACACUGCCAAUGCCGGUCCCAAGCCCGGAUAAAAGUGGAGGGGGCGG

# Variants of: B1
# experimental_details: self-cleavage, relative activity (ratio to wild type); higher = more cleavage; co-transcriptional
measured_quantity: self-cleavage

> print(dat)
    mutation.list  result
 1       C9G C20U    0.23
 2      G13A A22G   0.107
 3      G29A A35U   0.887
 4       A2U G28A   0.409
 5       C5U U12A   0.943
 6       C5G A23G   0.133
 7      A10U C15A   0.619
 8       A2C U12G  0.0824
 9      U12C C21G  0.0654
10       C8G G13U   0.194
11      C20G A34U   0.074
12       C5A G17A  0.0903
13      C19G G43C   0.711
14      C27A G41C   0.152
15       C3U C25G  0.0982
16      U18G A40U  0.0452
17      A22U G42A   0.126
18       C3G G41A   0.209
19       C3G G48C    0.65
20      A23G U37C   0.142
21      A40C G43U   0.136
22       C5A G47C   0.199
23      U37A C46A   0.844
24      G43A G45A   0.318
25           U18G  0.0785
26      C21U A40G  0.0774
27      C25A U37A   0.106
28       G7U G24C  0.0734
29       G7C G45U  0.0816
30      C21U G45U   0.118
31       U6C C20A  0.0292
32       C9A A30C   0.608
33      A10G G13C   0.835
34       A4G C46U   0.775
35       A1C U31G   0.144
36      G38A G48A   0.998
37       C3G A34U   0.203
